Entry source: PubChem BioAssay

- assay overview: HUVEC growth inhibition – cell-based, human, primary screen (AID 575);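 note: 100% = median of untreated cell wells with 0.1% DMSO on each plate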
- condition label: HUVEC proliferation, CellTiter-Glo luminescence, 72 h; at 10 µM; active compounds read low
Calls of active or inactive are those of the source.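 Rule for the calls: active = viability at or below 30% in both replicate assays; inconclusive = viability at or below 30% in just one of the two assays; inactive = the rest.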
quantity name: viability

Sample answers from the record:
{"compound": "C[N+]1(C)CCN(c2ccccc2)CC1", "viability": "95.8% (inactive)"}
{"compound": "O=c1[nH]c(=O)n(Cc2ccc(F)cc2)c(O)c1C=NCCCN1CCOCC1", "viability": "96% (inactive)"}
{"compound": "O=C(NCc1ccccn1)c1ccccc1Cl", "viability": "91.2% (inactive)"}
{"compound": "O=c1[nH]c(=O)n(Cc2ccccc2)c(O)c1C=NCCCO", "viability": "94.1% (inactive)"}
{"compound": "Cn1c(=O)cc(OCC(=O)N2CCN(C3CCCCC3)CC2)c2ccccc21", "viability": "82% (inactive)"}

## Input Can you share its viability? I mean this compound: CCCC(C)(COC(N)=O)COC(=O)NC(C)C (stereo unspecified)
## Output 86.4% (inactive)

---

- assay overview: H69AR cell proliferation blockers – human, duplicate replicates, primary screen (AID 580);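 note: 100% = mean luminescence of untreated wells and 0% = no signal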
- condition label: H69AR lung tumor cells viability, ATP luminescence, 72 h; at 10 µM; active compounds read low
quantity name: viability (%)
State the answer as a number, implicitly in %.

Sample answers from the record:
{"compound": "CCC(=NCC1CCCO1)c1c(O)n(Cc2ccccc2)c(=O)[nH]c1=O (configuration not stated)", "display unit": "%", "viability": 86.3}
{"compound": "CCOC(=O)C1SC2(C(F)F)CC1(O)c1c(c(OC)c3occc3c1OC)O2 (configuration not stated)", "display unit": "%", "viability": 104}
{"compound": "C#CCN(C)C(C)Cc1ccccc1 (configuration not stated)", "display unit": "%", "viability": 99.3}
{"compound": "Cc1nc2ccccc2c(=O)n1-c1ccc(F)cc1", "display unit": "%", "viability": 96.1}
{"compound": "Cc1cccc(-n2c(-c3ccco3)nc3ccccc3c2=O)n1", "display unit": "%", "viability": 87.9}
{"compound": "CN1CCN(c2c[nH]c(=O)[nH]c2=O)CC1", "display unit": "%", "viability": 96.7}

## Input Can you share its viability? I mean this compound: "C[C@H]1CCCC(=O)CCCCCc2cc(O)cc(O)c2C(=O)O1"
## Output 87.3

## Input # iterate: "CN(C)CCc1nc2ccccc2c(=O)n1-c1ccccc1"
## Output 90.6

## Input # iterate: "Nc1ccccc1C(=O)OC1CSC1"
## Output 89.2

## Input # iterate: "Cn1c(=O)cc(SCC(=O)N2CCC3(CC2)OCCO3)c2ccc(Cl)cc21"
## Output 79.1

## Input # iterate: O=C(C(Cc1ccccc1)NS(=O)(=O)c1ccc(F)cc1)N1CCC2(CC1)OCCO2 (configuration not stated)
## Output 79

## Input # iterate: CCCC(C)(COC(N)=O)COC(=O)NC(C)C (configuration not stated)
## Output 100

---

List of inhibition values.
- target or system: Pantothenate synthetase (Mycobacterium tuberculosis (strain ATCC 25618 / H37Rv)) (UniProt P9WIL5)
- Sequence (P9WIL5 whole entry, looked up): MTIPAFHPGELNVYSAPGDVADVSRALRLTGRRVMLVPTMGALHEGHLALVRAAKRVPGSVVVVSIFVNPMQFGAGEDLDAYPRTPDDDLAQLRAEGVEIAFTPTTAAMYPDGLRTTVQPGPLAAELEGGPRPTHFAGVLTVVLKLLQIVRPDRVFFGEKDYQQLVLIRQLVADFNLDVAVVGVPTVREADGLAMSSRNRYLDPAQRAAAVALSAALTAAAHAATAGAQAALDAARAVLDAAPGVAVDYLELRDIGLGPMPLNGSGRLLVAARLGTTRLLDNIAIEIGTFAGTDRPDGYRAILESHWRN
- assay overview: Coupled enzyme confirmation of inhibitors against recombinant Mtb PanC (AID 375);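 note: 0% = full reaction with vehicle and 100% = no enzyme background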
- condition label: coupled enzyme assay; at 10 µM, active compounds read high
State the answer as a number, implicitly in %.

{"compound": "Cc1c(-n2c(CN3C(=O)c4ccccc4C3=O)nc3ccccc3c2=O)c(=O)n(-c2ccccc2)n1C", "display unit": "%", "inhibition": 0}

## Input Can you share its inhibition? I mean this compound: Cc1ccc(CCNC(=O)C2CCC(=O)N2C2CCCC2)cc1 (stereo not drawn)
## Output 0

## Input # iterate: CC(NC(=O)NC12CC3CC(CC(C3)C1)C2)C1CCCO1 (stereo not drawn)
## Output 5

## Input # iterate: "Cc1nc(N2CCN(c3ncccn3)CC2)c2oc3ccccc3c2n1"
## Output 2

## Input # iterate: "O=C(c1cccc(C(=O)N2CCN(c3ccccc3)CC2)c1)N1CCN(c2ccccc2)CC1"
## Output 0

---

- assay overview: H69AR cell proliferation blockers – human, duplicate replicates, primary screen (AID 580);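 note: 100% = mean luminescence of untreated wells and 0% = no signal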
- condition label: H69AR lung tumor cells viability, ATP luminescence, 72 h; at 10 µM; active compounds read low
List of viability values.
State the answer as a number, implicitly in %.

{"molecule": "O=C1CC[C@@]2(O)[C@H]3Cc4ccc(O)c5c4[C@@]2(CCN3CC2CC2)[C@H]1O5", "display unit": "%", "viability": 99.5}
{"molecule": "[N-]=[N+]=CC(=O)OC[C@H](N)C(=O)O", "display unit": "%", "viability": 88.5}
{"molecule": "CC(C)(C)P(=O)(c1ccncc1)N1CCCC1 (stereo unspecified)", "display unit": "%", "viability": 92.8}
{"molecule": "CC1CCC(C(=O)NC(C(=O)N2CCC3(CC2)OCCO3)C(C)C)CC1 (stereo unspecified)", "display unit": "%", "viability": 99.5}
{"molecule": "CCOc1cccc(N2C(=O)CC(=O)NC2=O)c1", "display unit": "%", "viability": 94.5}

Attention now turns to another entry.
## Input Can you share its viability? I mean this molecule: "O=C(O)Cn1cc(C(=O)c2ccccc2)c2ccccc21"
## Output 94.7

---

- target or system: Pantothenate synthetase (Mycobacterium tuberculosis (strain ATCC 25618 / H37Rv))
- assay overview: Coupled enzyme confirmation of inhibitors against recombinant Mtb PanC (AID 375);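 note: 0% = full reaction with vehicle and 100% = no enzyme background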
- condition label: coupled enzyme assay; at 10 µM, active compounds read high
quantity name: inhibition (%)
State the answer as a number, implicitly in %.

Sample answers from the record:
{"compound": "O=C(NC1CCCCC1)N(Cc1ccc(F)cc1)Cc1nc2ccccc2c(=O)[nH]1", "measured value": 9}
{"compound": "NC(=O)c1c(NC(=O)Cc2cccs2)sc2c1CCC2", "measured value": 0}
{"compound": "Cn1c(Cc2ccccc2)nnc1SCC(=O)c1ccc(Br)s1", "measured value": 0}
{"compound": "CN1CCN(c2nc3c(c(=O)n(C)c(=O)n3C)n2Cc2cccc3ccccc23)CC1", "measured value": 0}
{"compound": "COc1ccc(C(=O)CN2C(=O)NC3(CCCc4ccccc43)C2=O)cc1OC (stereo unspecified)", "measured value": 0}

## Input Can you share its inhibition? I mean this compound: "Cn1c(=O)[nH]c(=O)c2c1nc(NC1CCCCC1)n2CC(=O)NC1CCCCC1"
## Output 0

## Input # iterate: "Cc1noc(C)c1C(=O)Nc1ccc(Cl)cc1C(F)(F)F"
## Output 4

## Input # iterate: "COc1ccc(-n2c(SCCC(=O)O)nnc2-c2ccncc2)cc1"
## Output 5

---

- assay overview: reduced viability of SK-BR-3 breast cancer cells – cell-based, 24 h, human, pilot screen (AID 572);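 note: compound exposure lasted between 18 and 24 h rather than exactly 24 h; 100% = carrier-treated control wells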
- condition label: SK-BR-3 viability, CellTiter-Glo luminescence, at 10 µM, active compounds read low
quantity name: viability (%)
State the answer as a number, implicitly in %.

Sample answers from the record:
{"molecule": "O=C(CCCOc1ccc(Cl)cc1Cl)N1CCC2(CC1)OCCO2", "measured value": 106}
{"molecule": "Cn1c(O)c(C=NCc2ccco2)c(=O)n(C)c1=O", "measured value": 106}
{"molecule": "CC1(C)Cc2c(sc3c2C(=O)NC(c2cccnc2)N3)CO1 (stereo unspecified)", "measured value": 113}

## Input Can you share its viability? I mean this molecule: "NCCc1ccc(O)cc1"
## Output 112

## Input # iterate: Clc1ccc(COC(Cn2ccnc2)c2ccc(Cl)cc2Cl)c(Cl)c1 (stereo unspecified)
## Output 105

## Input # iterate: "Cc1ccc(OCC(=O)NCCN2CCN(C(=O)COc3ccc(C)cc3)CC2)cc1"
## Output 124

---

- target or system: Pantothenate synthetase (Mycobacterium tuberculosis (strain ATCC 25618 / H37Rv)) (UniProt P9WIL5)
- assay overview: Coupled enzyme confirmation of inhibitors against recombinant Mtb PanC (AID 375);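 note: 0% = full reaction with vehicle and 100% = no enzyme background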
- condition label: coupled enzyme assay; at 10 µM, active compounds read high
List of inhibition values.
State the answer as a number, implicitly in %.

Sample answers from the record:
{"molecule": "CCC(CC)C1C(C#N)=C(N)Oc2n[nH]c(C)c21 (stereo not given)", "display unit": "%", "inhibition": 0}
{"molecule": "CN(C)CCCN1C(=O)c2oc3ccc(Cl)cc3c(=O)c2C1c1cccnc1 (stereo not given)", "display unit": "%", "inhibition": 0}
{"molecule": "Cc1[nH]c2ccccc2c(=O)c1CN1CCCCC1", "display unit": "%", "inhibition": 0}
{"molecule": "Cc1ccnc(SCCn2c(N3CCN(Cc4ccccc4)CC3)nc3c2c(=O)[nH]c(=O)n3C)n1", "display unit": "%", "inhibition": 0}
{"molecule": "CCCNC(=O)NC(C(=O)OC)C12CC3CC(CC(C3)C1)C2 (stereo not given)", "display unit": "%", "inhibition": 3}
{"molecule": "COC(=O)c1nn(-c2ccc(-c3ccccc3)cc2)cc1O", "display unit": "%", "inhibition": 0}
{"molecule": "N#CC1=C(N)S[C@H](C(=O)C23CC4CC(CC(C4)C2)C3)[C@H]1c1ccncc1", "display unit": "%", "inhibition": 0}
{"molecule": "Cc1nc2ccc(NC(=O)N3CCOCC3)cc2s1", "display unit": "%", "inhibition": 4}
{"molecule": "Cc1cc2c(s1)c1cnn(CC(=O)NCCc3ccccc3)c(=O)c1n2C", "display unit": "%", "inhibition": 0}
{"molecule": "O=C(O)c1ccc(COc2ccc(Cl)cc2)o1", "display unit": "%", "inhibition": 0}

## Input Can you share its inhibition? I mean this molecule: "COC(=O)[C@H](CCSC)NC(=O)Nc1cc(C)ccc1C"
## Output 0

## Input # iterate: COc1cc(C(=O)N2CCC(NC(=O)C(Cc3ccc(C)cc3)NC(C)=O)CC2)cc(OC)c1OC (stereo not given)
## Output 3

## Input # iterate: "CC(C)Oc1cccc(-c2cc(C(=O)N3CCN(S(C)(=O)=O)CC3)c3ccccc3n2)c1"
## Output 5

## Input # iterate: C=CCN1C(=O)C2(c3ccccc31)C1CCCC=C1C(C#N)=C(N)C2(C#N)C#N (stereo not given)
## Output 0

## Input # iterate: CC1Cc2ccccc2N1C(=O)Cc1cccs1 (stereo not given)
## Output 3

## Input # iterate: "COC(=O)c1sc(NC(=O)c2ccoc2C)nc1C"
## Output 0

## Input # iterate: "O=C(c1ccco1)N1CCN(c2nc(C(F)(F)F)nc3c2nnn3Cc2ccccc2)CC1"
## Output 0
